Source of measurements: patent EP4588489A1

In this section, each of the binders is paired with its reported Relative activity (%), inhibition of MM.1S cell proliferation.
Molecular target: T1, BCMA (UniProt Q02223 1-184, limits assumed)
T1 sequence (looked up): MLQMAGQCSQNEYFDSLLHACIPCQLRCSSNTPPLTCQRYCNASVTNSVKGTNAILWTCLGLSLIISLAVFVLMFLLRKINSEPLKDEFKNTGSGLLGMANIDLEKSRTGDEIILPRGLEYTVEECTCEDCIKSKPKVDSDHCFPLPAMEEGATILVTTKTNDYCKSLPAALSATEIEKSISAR
Test: cell-based or functional assay
VALUE_TYPE: Relative activity (%), inhibition of MM.1S cell proliferation

BINDER	RESULT
anti-BCMA-005-Hu178-vcMMAE-D4 (antibody, human IgG1, kappa, V domains shown, vc-MMAE on cysteines of reduced interchain disulfides; HIC-DAR 3.78) VH: EVQLVESGGGLVKPGGSLRLSCAASGFTFSNFDMAWVRQAPGKGLEWVASIVTRGDDTYYRDSVRGRFTISRDNAKNTQYLQMNSLRAEDTAVYYCARHDYGGPSGWFGYWGQGTLVTVSS VL: DIQMTQSPSSLSASVGDRVTITCRASQGFSNNLNWYQQKPGKTPKPLIYYTSNLHSGVPSRFSGSGSGTDYSLTISSLQPEDFATYYCQQDASFPPTFGQGTKLEIKR	100%
anti-BCMA-005-Hu178-glucoseMMAE-NC-D4 (antibody, human IgG1, kappa, V domains shown, Linker-MMAE derivative 1 on cysteines of reduced interchain disulfides; HIC-DAR 3.73) VH: EVQLVESGGGLVKPGGSLRLSCAASGFTFSNFDMAWVRQAPGKGLEWVASIVTRGDDTYYRDSVRGRFTISRDNAKNTQYLQMNSLRAEDTAVYYCARHDYGGPSGWFGYWGQGTLVTVSS VL: DIQMTQSPSSLSASVGDRVTITCRASQGFSNNLNWYQQKPGKTPKPLIYYTSNLHSGVPSRFSGSGSGTDYSLTISSLQPEDFATYYCQQDASFPPTFGQGTKLEIKR	86.8%
anti-BCMA-005-Hu178-vcMMAF-D4 (antibody, human IgG1, kappa, V domains shown, vc-MMAF on cysteines of reduced interchain disulfides; HIC-DAR 3.86) VH: EVQLVESGGGLVKPGGSLRLSCAASGFTFSNFDMAWVRQAPGKGLEWVASIVTRGDDTYYRDSVRGRFTISRDNAKNTQYLQMNSLRAEDTAVYYCARHDYGGPSGWFGYWGQGTLVTVSS VL: DIQMTQSPSSLSASVGDRVTITCRASQGFSNNLNWYQQKPGKTPKPLIYYTSNLHSGVPSRFSGSGSGTDYSLTISSLQPEDFATYYCQQDASFPPTFGQGTKLEIKR	166%
anti-BCMA-005-Hu178-OMeMMAE-D4 (antibody, human IgG1, kappa, V domains shown, Linker-MMAE derivative 2 on cysteines of reduced interchain disulfides; HIC-DAR 3.79) VH: EVQLVESGGGLVKPGGSLRLSCAASGFTFSNFDMAWVRQAPGKGLEWVASIVTRGDDTYYRDSVRGRFTISRDNAKNTQYLQMNSLRAEDTAVYYCARHDYGGPSGWFGYWGQGTLVTVSS VL: DIQMTQSPSSLSASVGDRVTITCRASQGFSNNLNWYQQKPGKTPKPLIYYTSNLHSGVPSRFSGSGSGTDYSLTISSLQPEDFATYYCQQDASFPPTFGQGTKLEIKR	77.1%
